Reference source for all entries: patent US20030104423A1

Biological target: T1, HMK-His6-σ70, 32P-labeled (pHMK-His6-σ70) (Escherichia coli, UniProt P00579 1-613)
T1 construct: range 1-613; also called ^32P-labeled ?^70; HMK-?^70
Test: far-Western binding, 32P-σ70 probe; grade
PROPERTY NAME: binding result

Asked: Give binding result for the following binder: β′ mutant E301P (enzyme) MKDLLKFLKAQTKTEEFDAIKIALASPDMIRSWSFGEVKKPETINYRTFKPERDGLFCARIFGPVKDYECLCGKYKRLKHRGVICEKCGVEVTQTKVRRERMGHIELASPTAHIWFLKSLPSRIGLLLDMPLRDIERVLYFESYVVIEGGMTNLERQQILTEEQYLDALEEFGDEFDAKMGAEAIQALLKSMDLEQECEQLREELNETNSETKRKKLTKRIKLLEAFVQSGNKPEWMILTVLPVLPPDLRPLVPLDGGRFATSDLNDLYRRVINRNNRLKRLLDLAAPDIIVRNEKRMLQPAVDALLDNGRRGRAITGS
Given back: no binding

Asked: Give binding result for the following binder: β′1-319 Y269A (pTA611) (enzyme) MKDLLKFLKAQTKTEEFDAIKIALASPDMIRSWSFGEVKKPETINYRTFKPERDGLFCARIFGPVKDYECLCGKYKRLKHRGVICEKCGVEVTQTKVRRERMGHIELASPTAHIWFLKSLPSRIGLLLDMPLRDIERVLYFESYVVIEGGMTNLERQQILTEEQYLDALEEFGDEFDAKMGAEAIQALLKSMDLEQECEQLREELNETNSETKRKKLTKRIKLLEAFVQSGNKPEWMILTVLPVLPPDLRPLVPLDGGRFATSDLNDLARRVINRNNRLKRLLDLAAPDIIVRNEKRMLQEAVDALLDNGRRGRAITGS
Given back: binds

Asked: Give binding result for the following binder: β′ mutant V272D (enzyme) MKDLLKFLKAQTKTEEFDAIKIALASPDMIRSWSFGEVKKPETINYRTFKPERDGLFCARIFGPVKDYECLCGKYKRLKHRGVICEKCGVEVTQTKVRRERMGHIELASPTAHIWFLKSLPSRIGLLLDMPLRDIERVLYFESYVVIEGGMTNLERQQILTEEQYLDALEEFGDEFDAKMGAEAIQALLKSMDLEQECEQLREELNETNSETKRKKLTKRIKLLEAFVQSGNKPEWMILTVLPVLPPDLRPLVPLDGGRFATSDLNDLYRRDINRNNRLKRLLDLAAPDIIVRNEKRMLQEAVDALLDNGRRGRAITGS
Given back: no binding

Asked: Give binding result for the following binder: β′1-319 N266D (pTA610) (enzyme) MKDLLKFLKAQTKTEEFDAIKIALASPDMIRSWSFGEVKKPETINYRTFKPERDGLFCARIFGPVKDYECLCGKYKRLKHRGVICEKCGVEVTQTKVRRERMGHIELASPTAHIWFLKSLPSRIGLLLDMPLRDIERVLYFESYVVIEGGMTNLERQQILTEEQYLDALEEFGDEFDAKMGAEAIQALLKSMDLEQECEQLREELNETNSETKRKKLTKRIKLLEAFVQSGNKPEWMILTVLPVLPPDLRPLVPLDGGRFATSDLDDLYRRVINRNNRLKRLLDLAAPDIIVRNEKRMLQEAVDALLDNGRRGRAITGS
Given back: binds

***
Asked: Give binding result for the following binder: β′1-319 K280E (pTA613) (enzyme) MKDLLKFLKAQTKTEEFDAIKIALASPDMIRSWSFGEVKKPETINYRTFKPERDGLFCARIFGPVKDYECLCGKYKRLKHRGVICEKCGVEVTQTKVRRERMGHIELASPTAHIWFLKSLPSRIGLLLDMPLRDIERVLYFESYVVIEGGMTNLERQQILTEEQYLDALEEFGDEFDAKMGAEAIQALLKSMDLEQECEQLREELNETNSETKRKKLTKRIKLLEAFVQSGNKPEWMILTVLPVLPPDLRPLVPLDGGRFATSDLNDLYRRVINRNNRLERLLDLAAPDIIVRNEKRMLQEAVDALLDNGRRGRAITGS
Given back: binds
